Reported pIC50 values for a set of molecules
test system: MV-4-11 human acute monocytic leukemia cells; test: Cell proliferation (Cell Titer Glo), MV-4-11 cells (FLT3); type: cell-based; conditions: MV4-11, 72 h, 3 days, CTG, * = average of multiple tests, read-out: Cytological experiment FLT3 IC50
pIC50: −log10 of the molar value.

Recorded results for 2 molecules are shown here.
**Query** Using the record for CCCN1CCCn2c1ncc(-c1ccc(Oc3ccnc(-c4cnn(C)c4)c3)c(C)n1)c2=O , state its measured pIC50.
**Result** < 5.22

**Query** Dear colleague, please send me the reported pIC50 for Cc1nc(-c2cnc3n(c2=O)CCCN3C2CCC2)ccc1Oc1ccnc(-c2cnn(C)c2)c1 when you can.
**Result** 5.70

***
**Query** Look up pIC50 of Cc1nc(-c2cnc3n(c2=O)CCC(C)N3C)ccc1Oc1ccnc(-c2cnn(C)c2)c1 (stereo not shown) and report it.
**Result** < 4.74

**Query** Give the reported value of pIC50 for this record: Cc1nc(-c2cnc3n(c2=O)CCCN3C)ccc1Oc1ccnc(-c2cn[nH]c2)c1
**Result** < 4.74

**Query** Specify measured pIC50 for CCN1CCCn2c1ncc(-c1ccc(Oc3ccnc(-c4cnn(C)c4)c3)c(C)n1)c2=O .
**Result** 5.74

**Query** Note pIC50 for the molecule shown: Cc1nc(-c2cnc3n(c2=O)CCCN3C)ccc1Oc1ccnc(-c2cnn(C)c2)c1
**Result** < 5.22

**Query** Supply reported pIC50 belonging to this molecule: Cc1nc(-c2cnc3n(c2=O)CC[C@@H]2CCCN32)ccc1Oc1ccnc(-c2cnn(C)c2)c1
**Result** < 4.74

Numbers sourced from patent US11130762B2.
